recordedConditions: in dichloromethane, 279.15 K

- compound: "NS(=O)(=O)c1ccccc1"
  solubility (mole fraction): 0.00175

----------
recordedConditions: in isopropanol, 293.75 K

- compound: "NS(=O)(=O)c1ccccc1"
  solubility (mole fraction): 0.0141

----------
recordedConditions: in methanol, 283.45 K
assayEndpoint: solubility (mole fraction)

- compound: "NS(=O)(=O)c1ccccc1"
  result: 0.0357

----------
recordedConditions: in methyl acetate, 313.15 K

- compound: "NS(=O)(=O)c1ccccc1"
  solubility (mole fraction): 0.0915

----------
recordedConditions: in isobutanol, 283.85 K
assayEndpoint: solubility (mole fraction)

- compound: "NS(=O)(=O)c1ccccc1"
  quantitativeReadout: 0.00537

----------
recordedConditions: in ethyl formate, 293.25 K

- compound: "NS(=O)(=O)c1ccccc1"
  solubility (mole fraction): 0.0289

----------
recordedConditions: in methyl acetate, 317.65 K

- compound: "NS(=O)(=O)c1ccccc1"
  solubility (mole fraction): 0.101

----------
recordedConditions: in methanol, 317.65 K

- compound: "NS(=O)(=O)c1ccccc1"
  solubility (mole fraction): 0.0923

----------
recordedConditions: in ethyl acetate, 283.45 K

- compound: "NS(=O)(=O)c1ccccc1"
  solubility (mole fraction): 0.0389

----------
recordedConditions: in cyclopentanone, 283.85 K

- compound: "NS(=O)(=O)c1ccccc1"
  solubility (mole fraction): 0.152

----------
recordedConditions: in cyclopentanone, 273.15 K

- compound: "NS(=O)(=O)c1ccccc1"
  solubility (mole fraction): 0.14

----------
recordedConditions: in methyl acetate, 279.15 K

- compound: "NS(=O)(=O)c1ccccc1"
  solubility (mole fraction): 0.0467

----------
recordedConditions: in n-butanol, 303.75 K

- compound: "NS(=O)(=O)c1ccccc1"
  solubility (mole fraction): 0.016

----------
recordedConditions: in n-butanol, 309.15 K
assayEndpoint: solubility (mole fraction)

- compound: "NS(=O)(=O)c1ccccc1"
  quantitativeReadout: 0.0195

----------
recordedConditions: in cyclohexanone, 273.15 K
assayEndpoint: solubility (mole fraction)

- compound: "NS(=O)(=O)c1ccccc1"
  quantitativeReadout: 0.114

----------
recordedConditions: in acetonitrile, 298.85 K
assayEndpoint: solubility (mole fraction)

- compound: "NS(=O)(=O)c1ccccc1"
  assayEndpoint: "solubility (mole fraction)"
  result: 0.0649

----------
recordedConditions: in cyclopentanone, 303.75 K
assayEndpoint: solubility (mole fraction)

- compound: "NS(=O)(=O)c1ccccc1"
  quantitativeReadout: 0.187

----------
recordedConditions: in cyclohexanone, 324.45 K

- compound: "NS(=O)(=O)c1ccccc1"
  solubility (mole fraction): 0.21

----------
recordedConditions: in isobutanol, 309.15 K
assayEndpoint: solubility (mole fraction)

- compound: "NS(=O)(=O)c1ccccc1"
  quantitativeReadout: 0.0148

----------
recordedConditions: in n-butanol, 324.45 K

- compound: "NS(=O)(=O)c1ccccc1"
  solubility (mole fraction): 0.0323

----------
recordedConditions: in n-propanol, 319.15 K
assayEndpoint: solubility (mole fraction)

- compound: "NS(=O)(=O)c1ccccc1"
  quantitativeReadout: 0.036

----------
recordedConditions: in isopropanol, 324.45 K

- compound: "NS(=O)(=O)c1ccccc1"
  solubility (mole fraction): 0.0444

----------
recordedConditions: in isopentanol, 279.15 K
assayEndpoint: solubility (mole fraction)

- compound: "NS(=O)(=O)c1ccccc1"
  assayEndpoint: "solubility (mole fraction)"
  quantitativeReadout: 0.00488
